Data credit: ChEMBL document CHEMBL1132220

Target: Somatostatin receptor
Assay: Antagonism of in vitro SRIF inhibition of GH release in rat in vitro pituitary cell assay
Type: functional, cell-based
Conditions: pituitary gland cell
MEASURE NAME: IC50 (nM)

1: CC(C)[C@H]1NC(=O)[C@H](CCCCN)NC(=O)[C@@H](Cc2c[nH]c3ccccc23)NC(=O)[C@H](Cc2cccnc2)NC(=O)[C@@H](NC(=O)[C@@H](N)Cc2ccc(Cl)cc2)CSSC[C@H](C(=O)N[C@@H](Cc2ccc(Cl)cc2)C(N)=O)NC1=O
2: C[C@@H]1NC(=O)[C@H](CCCCN)NC(=O)[C@@H](Cc2c[nH]c3ccccc23)NC(=O)[C@H](Cc2cccnc2)NC(=O)[C@@H](NC(=O)[C@@H](N)Cc2ccc3ccccc3c2)CSSC[C@@H](C(=O)N[C@@H](Cc2ccc3ccccc3c2)C(N)=O)NC1=O
3: CC(C)[C@H]1NC(=O)[C@H](CCCCN)NC(=O)[C@@H](Cc2c[nH]c3ccccc23)NC(=O)[C@H](Cc2cccnc2)NC(=O)[C@@H](NC(=O)[C@@H](N)Cc2c(F)c(F)c(F)c(F)c2F)CSSC[C@H](C(=O)N[C@@H](Cc2c(F)c(F)c(F)c(F)c2F)C(N)=O)NC1=O
4: CC[C@H](C)[C@H]1NC(=O)[C@H](CCCCN)NC(=O)[C@@H](Cc2c[nH]c3ccccc23)NC(=O)[C@H](Cc2ccc(O)cc2)NC(=O)[C@@H](NC(=O)[C@@H](N)Cc2ccc(-c3ccccc3)cc2)CSSC[C@@H](C(=O)N[C@@H](Cc2ccc(-c3ccccc3)cc2)C(N)=O)NC1=O
-- ask Using the recorded IC50, list the entries above from smallest to largest. Response format: the labels, sorted as the prompt asks.
-- reply 1, 3, 2, 4

---

Bridge positions count the residues as written; N and C are the ends. Square brackets hold non-standard residues; d marks the D form. Peptide text beside a SMILES is read from it. Phe(4-F) = N[C@@H](Cc1ccc(F)cc1)C(=O)O; 2Nal = N[C@@H](Cc1ccc2ccccc2c1)C(=O)O; 3Pal = N[C@@H](Cc1cccnc1)C(=O)O; Tle = CC(C)(C)[C@H](N)C(=O)O
Heads up, these molecules all have Ki values measured for Somatostatin receptor type 5 (Homo sapiens, UniProt P35346).
MEASURE NAME: Ki (nM)

# annotated cases, reported Ki shown
CC(C)(C)[C@@H]1NC(=O)[C@H](CCCCN)NC(=O)[C@@H](Cc2c[nH]c3ccccc23)NC(=O)[C@H](Cc2cccnc2)NC(=O)[C@H](NC(=O)[C@@H](N)Cc2ccc3ccccc3c2)CSSC[C@@H](C(=O)N[C@@H](Cc2ccc3ccccc3c2)C(N)=O)NC1=O (H-[2Nal][dC][3Pal][dW]K[Tle]C[2Nal]-NH2; disulfide 2-7) :: 631
CC(C)[C@@H]1NC(=O)[C@H](CCCCN)NC(=O)[C@@H](Cc2c[nH]c3ccccc23)NC(=O)[C@H](Cc2cccnc2)NC(=O)[C@H](NC(=O)[C@@H](N)Cc2ccc(F)cc2)CSSC[C@@H](C(=O)N[C@@H](Cc2ccc3ccccc3c2)C(N)=O)NC1=O :: 287
CC(C)(C)[C@@H]1NC(=O)[C@H](CCCCN)NC(=O)[C@@H](Cc2c[nH]c3ccccc23)NC(=O)[C@H](Cc2cccnc2)NC(=O)[C@H](NC(=O)[C@@H](N)Cc2ccc(F)cc2)CSSC[C@@H](C(=O)N[C@@H](Cc2ccc3ccccc3c2)C(N)=O)NC1=O (H-[Phe(4-F)][dC][3Pal][dW]K[Tle]C[2Nal]-NH2; disulfide 2-7) :: 535

I: CC(C)[C@@H]1NC(=O)[C@H](CCCCN)NC(=O)[C@@H](Cc2c[nH]c3ccccc23)NC(=O)[C@H](Cc2cccnc2)NC(=O)[C@H](NC(=O)[C@@H](N)Cc2ccc(F)cc2)CSSC[C@@H](C(=O)N[C@@H](Cc2ccc(F)cc2)C(N)=O)NC1=O
II: C[C@@H](O)[C@@H]1NC(=O)[C@H](CCCCN)NC(=O)[C@@H](Cc2c[nH]c3ccccc23)NC(=O)[C@H](Cc2ccccn2)NC(=O)C(NC(=O)[C@@H](N)Cc2ccc(Cl)cc2)CSSCC(C(=O)N[C@@H](Cc2ccc3ccccc3c2)C(N)=O)NC1=O (stereo in doubt)
III: CC(C)[C@@H]1NC(=O)[C@H](CCCCN)NC(=O)[C@@H](Cc2c[nH]c3ccccc23)NC(=O)[C@H](Cc2cccnc2)NC(=O)[C@H](NC(=O)[C@@H](N)Cc2c(F)c(F)c(F)c(F)c2F)CSSC[C@@H](C(=O)N[C@@H](Cc2c(F)c(F)c(F)c(F)c2F)C(N)=O)NC1=O
-- ask Sort (3 molecules) by Ki: min first. Respond with the label ranking, as requested.
-- reply II, I, III
